pKi: −log10 of the molar value. Numbered stars: 1 amine (or outer) side, 2 acyl side, 3 side chain; on linkers, the order of the positions; unused ones are H or OH. Bridge positions count the residues as written; N and C are the ends. Square brackets hold non-standard residues; d marks the D form. Peptide text beside a SMILES is read from it. Trp(5-F) = N[C@@H](Cc1c[nH]c2ccc(F)cc12)C(=O)O; mXylylene = c1cc(C[*:1])cc(C[*:2])c1; αMeP = C[C@@]1(C(=O)O)CCCN1; Nva = CCC[C@H](N)C(=O)O; Mpa = O=C(O)CCS
Notes on pKi obtained with Proprotein convertase subtilisin/kexin type 9 (Homo sapiens).
Sequence (Q8NBP7 31-152 limits assumed): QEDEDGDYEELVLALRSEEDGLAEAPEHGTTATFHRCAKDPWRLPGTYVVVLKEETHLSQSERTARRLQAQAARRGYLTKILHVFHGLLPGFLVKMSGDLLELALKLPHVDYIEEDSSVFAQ
Sequence (Q8NBP7 153-692 limits assumed): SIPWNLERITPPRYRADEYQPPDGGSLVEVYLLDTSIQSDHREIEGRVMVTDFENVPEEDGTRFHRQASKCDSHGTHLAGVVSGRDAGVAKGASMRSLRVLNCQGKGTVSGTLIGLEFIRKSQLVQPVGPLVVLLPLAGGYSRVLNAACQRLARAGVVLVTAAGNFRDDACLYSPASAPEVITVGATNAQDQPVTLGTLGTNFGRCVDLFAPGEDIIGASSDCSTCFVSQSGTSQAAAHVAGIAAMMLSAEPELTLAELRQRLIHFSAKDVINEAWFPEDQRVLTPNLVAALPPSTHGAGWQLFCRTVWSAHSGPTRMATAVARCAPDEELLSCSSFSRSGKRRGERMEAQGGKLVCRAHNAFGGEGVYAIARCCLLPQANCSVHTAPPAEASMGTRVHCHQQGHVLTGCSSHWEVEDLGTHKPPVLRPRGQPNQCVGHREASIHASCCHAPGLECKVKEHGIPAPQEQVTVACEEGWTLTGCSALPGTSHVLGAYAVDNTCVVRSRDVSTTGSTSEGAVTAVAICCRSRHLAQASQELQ

{"Molecule": "CCC[C@@H]1NC(=O)CCSCc2cccc(c2)CSC[C@@H](C(N)=O)NC(=O)[C@]2(C)CCCN2C(=O)[C@H](Cc2ccc(O)cc2)NC(=O)[C@H](Cc2cnc[nH]2)NC(=O)[C@H](CC(=O)O)NC(=O)[C@H](Cc2c[nH]c3ccc(F)cc23)NC(=O)[C@H](Cc2c[nH]c3ccc(F)cc23)NC(=O)CNC1=O ([Mpa][Nva]G[Trp(5-F)][Trp(5-F)]DHY[αMeP]C-NH2; linker 1-10 via mXylylene)", "pKi": 7.45}
{"Molecule": "COc1ccc(C[C@@H]2NC(=O)[C@H]([C@@H](C)O)NC(=O)[C@@H]3CCCN3C(=O)[C@@H]3Cc4cn(c5ccc(F)cc45)Cc4cn(nn4)-c4cc(cc(c4)CSCCC(=O)N[C@@H](C)C(=O)N[C@H](C)C(=O)N[C@@H](Cc4c[nH]c5ccc(F)cc45)C(=O)N3)CSCCNC(=O)[C@]3(C)CCCN3C2=O)cc1", "pKi": 8.87}

* * *

Protocol Summary: Half life in C57BL/6 mouse at 1 mg/kg, iv by LC-MS/MS analysis
Assay type: ADME, organism-based
Condition Parameters: in vivo
Numbered stars: 1 amine (or outer) side, 2 acyl side, 3 side chain; on linkers, the order of the positions; unused ones are H or OH. Bridge positions count the residues as written; N and C are the ends. Square brackets hold non-standard residues; d marks the D form. Peptide text beside a SMILES is read from it. Trp(5-F) = N[C@@H](Cc1c[nH]c2ccc(F)cc12)C(=O)O; mXylylene = c1cc(C[*:1])cc(C[*:2])c1; αMeP = C[C@@]1(C(=O)O)CCCN1; Mpa = O=C(O)CCS
half-life: recorded values

{"Compound": "NCCCC[C@@H]1NC(=O)CCSCc2cccc(c2)CSC[C@@H](C(N)=O)NC(=O)[C@@H]2CCCN2C(=O)[C@H](Cc2ccc(O)cc2)NC(=O)[C@H](Cc2c[nH]cn2)NC(=O)[C@H](CC(=O)O)NC(=O)[C@H](Cc2c[nH]c3ccc(F)cc23)NC(=O)[C@H](Cc2c[nH]c3ccc(F)cc23)NC(=O)CNC1=O", "Unit Spec": "min", "half-life": 62.4}
{"Compound": "C[C@@]12CCCN1C(=O)[C@H](Cc1ccc(O)cc1)NC(=O)[C@H](Cc1cnc[nH]1)NC(=O)[C@H](CC(=O)O)NC(=O)[C@H](Cc1c[nH]c3ccc(F)cc13)NC(=O)[C@H](Cc1c[nH]c3ccc(F)cc13)NC(=O)CNC(=O)[C@H](CCCCN)NC(=O)CCSCc1cccc(c1)CSC[C@@H](C(N)=O)NC2=O ([Mpa]KG[Trp(5-F)][Trp(5-F)]DHY[αMeP]C-NH2; linker 1-10 via mXylylene)", "Unit Spec": "min", "half-life": 19.8}
{"Compound": "CC(C)[C@H]1NC(=O)[C@H](CCCCN)NC(=O)CCSCc2cccc(c2)CSCCNC(=O)[C@]2(C)CCCN2C(=O)[C@H](Cc2ccc(O)cc2)NC(=O)[C@H](Cc2cnc[nH]2)NC(=O)[C@H](CC(=O)O)NC(=O)[C@H](Cc2c[nH]c3ccc(F)cc23)NC(=O)[C@H](Cc2c[nH]c3ccc(F)cc23)NC1=O", "Unit Spec": "min", "half-life": 15}

* * *

Protocol Summary: Half life in cynomolgus monkey whole blood at 100 uM by LC-MS/MS analysis
Type: ADME, tissue-based, Macaca fascicularis
Numbered stars: 1 amine (or outer) side, 2 acyl side, 3 side chain; on linkers, the order of the positions; unused ones are H or OH. Bridge positions count the residues as written; N and C are the ends. Square brackets hold non-standard residues; d marks the D form. Peptide text beside a SMILES is read from it. Trp(5-F) = N[C@@H](Cc1c[nH]c2ccc(F)cc12)C(=O)O; mXylylene = c1cc(C[*:1])cc(C[*:2])c1; αMeP = C[C@@]1(C(=O)O)CCCN1; Mpa = O=C(O)CCS
Catalogue of half-life at 100 µM readings, one per entry.
Metric: half-life at 100 µM

{"Compound": "CO[C@H](C)[C@@H]1NC(=O)[C@@H]2CCCN2C(=O)[C@H](Cc2c[nH]c3ccc(F)cc23)NC(=O)[C@H](Cc2c[nH]c3ccc(F)cc23)NC(=O)CNC(=O)[C@H](CCCCN)NC(=O)CCSCc2cccc(c2)CSC[C@@H](C(N)=O)NC(=O)[C@]2(C)CCCN2C(=O)[C@H](Cc2ccc(O)cc2)NC1=O ([Mpa]KG[Trp(5-F)][Trp(5-F)]PT(Me)Y[αMeP]C-NH2; linker 1-10 via mXylylene)", "Observed Result": "3.1 h"}
{"Compound": "C[C@H]1NC(=O)[C@H](CCCCN)NC(=O)CCSCc2cccc(c2)CSCCNC(=O)[C@]2(C)CCCN2C(=O)[C@H](Cc2ccc(O)cc2)NC(=O)[C@H](Cc2cnc[nH]2)NC(=O)[C@H](CC(=O)O)NC(=O)[C@H](Cc2c[nH]c3ccc(F)cc23)NC(=O)[C@H](Cc2c[nH]c3ccc(F)cc23)NC1=O", "Observed Result": "> 6 h"}
{"Compound": "COc1ccc(C[C@@H]2NC(=O)[C@H]([C@@H](C)O)NC(=O)[C@@H]3CCCN3C(=O)[C@@H]3Cc4cn(c5ccc(F)cc45)Cc4cn(nn4)-c4cc(cc(c4)CSCCC(=O)N[C@@H](C)C(=O)N[C@H](C)C(=O)N[C@@H](Cc4c[nH]c5ccc(F)cc45)C(=O)N3)CSCCNC(=O)[C@]3(C)CCCN3C2=O)cc1", "Observed Result": "> 6 h"}

* * *

Protocol Summary: AUC (0 to X) in Wistar Han rat at 1 mg/kg, iv by LC-MS/MS analysis
Format: ADME, organism-based
Parameters: dose 1 mg/kg
Condition Parameters: in vivo
Numbered stars: 1 amine (or outer) side, 2 acyl side, 3 side chain; on linkers, the order of the positions; unused ones are H or OH. Square brackets hold non-standard residues; d marks the D form. Peptide text beside a SMILES is read from it. Trp(5-F) = N[C@@H](Cc1c[nH]c2ccc(F)cc12)C(=O)O; Lys(Me3) = C[N+](C)(C)CCCC[C@H](N)C(=O)O; X1 = O=C(CCSCc1cccc(CSCCN[*:1])c1)[*:2]; αMeP = C[C@@]1(C(=O)O)CCCN1

{"Compound": "COc1ccc(C[C@@H]2NC(=O)[C@H]([C@@H](C)O)NC(=O)[C@@H]3CCCN3C(=O)[C@@H]3Cc4cn(c5ccc(F)cc45)Cc4cn(nn4)-c4cc(cc(c4)CSCCC(=O)N[C@@H](C)C(=O)N[C@H](C)C(=O)N[C@@H](Cc4c[nH]c5ccc(F)cc45)C(=O)N3)CSCCNC(=O)[C@]3(C)CCCN3C2=O)cc1", "AUC [nM·h]": 19.4}
{"Compound": "COc1ccc(C[C@@H]2NC(=O)[C@H](Cc3cnc[nH]3)NC(=O)[C@H](CC(=O)O)NC(=O)[C@H](Cc3c[nH]c4ccc(F)cc34)NC(=O)[C@H](Cc3c[nH]c4ccc(F)cc34)NC(=O)[C@@H](C)NC(=O)[C@H](CCCC[N+](C)(C)C)NC(=O)CCSCc3cccc(c3)CSCCNC(=O)[C@]3(C)CCCN3C2=O)cc1 (cyclo(DHY(Me)[αMeP][X1][Lys(Me3)][dA][Trp(5-F)][Trp(5-F)]))", "AUC [nM·h]": 3650}

* * *

Measured half-life at 100 µM accompanies every entry in the list below.
Protocol Summary: Half life in C57BL/6 mouse whole blood at 100 uM by LC-MS/MS analysis
Format: ADME, tissue-based
Numbered stars: 1 amine (or outer) side, 2 acyl side, 3 side chain; on linkers, the order of the positions; unused ones are H or OH. Bridge positions count the residues as written; N and C are the ends. Square brackets hold non-standard residues; d marks the D form. Peptide text beside a SMILES is read from it. * marks the point of attachment. Trp(5-F) = N[C@@H](Cc1c[nH]c2ccc(F)cc12)C(=O)O; X3 = O=C(CCSCc1cc(F)cc(CSCCN[*:1])c1)[*:2]; mXylylene = c1cc(C[*:1])cc(C[*:2])c1; αMeP = C[C@@]1(C(=O)O)CCCN1; X2 = COCCOCCOCCOCCC(=O)*; Mpa = O=C(O)CCS

{"Compound": "COCCOCCOCCOCCC(=O)NCCCC[C@@H]1NC(=O)CCSCc2cccc(c2)CSC[C@@H](C(N)=O)NC(=O)[C@]2(C)CCCN2C(=O)[C@H](Cc2ccc(O)cc2)NC(=O)[C@H](Cc2cnc[nH]2)NC(=O)[C@H](CC(=O)O)NC(=O)[C@H](Cc2c[nH]c3ccc(F)cc23)NC(=O)[C@H](Cc2c[nH]c3ccc(F)cc23)NC(=O)CNC1=O ([Mpa]K(X2)G[Trp(5-F)][Trp(5-F)]DHY[αMeP]C-NH2; linker 1-10 via mXylylene)", "half-life at 100 µM": "> 6 h"}
{"Compound": "NCCCC[C@@H]1NC(=O)CCSCc2cccc(c2)CSC[C@@H](C(N)=O)NC(=O)[C@@H]2CCCN2C(=O)[C@H](Cc2ccc(O)cc2)NC(=O)[C@H](Cc2c[nH]cn2)NC(=O)[C@H](CC(=O)O)NC(=O)[C@H](Cc2c[nH]c3ccc(F)cc23)NC(=O)[C@H](Cc2c[nH]c3ccc(F)cc23)NC(=O)CNC1=O", "half-life at 100 µM": "1.05 h"}
{"Compound": "CC(C)[C@H]1NC(=O)[C@H](CCCCN)NC(=O)CCSCc2cccc(c2)CSCCNC(=O)[C@]2(C)CCCN2C(=O)[C@H](Cc2ccc(O)cc2)NC(=O)[C@H](Cc2cnc[nH]2)NC(=O)[C@H](CC(=O)O)NC(=O)[C@H](Cc2c[nH]c3ccc(F)cc23)NC(=O)[C@H](Cc2c[nH]c3ccc(F)cc23)NC1=O", "half-life at 100 µM": "> 6 h"}
{"Compound": "C[C@H]1NC(=O)[C@H](CCCCN)NC(=O)CCSCc2cc(F)cc(c2)CSCCNC(=O)[C@]2(C)CCCN2C(=O)[C@H](Cc2ccc(O)cc2)NC(=O)[C@H](Cc2cnc[nH]2)NC(=O)[C@H](CC(=O)O)NC(=O)[C@H](Cc2c[nH]c3ccc(F)cc23)NC(=O)[C@H](Cc2c[nH]c3ccc(F)cc23)NC1=O (cyclo(DHY[αMeP][X3]K[dA][Trp(5-F)][Trp(5-F)]))", "half-life at 100 µM": "> 6 h"}
